Tested on: human monoclonal antibody CR57
Assay type: binding
propertyMeasured: Binding of CR57 to linear peptide (PEPSCAN-ELISA signal)

{"constructSequence": "IILGPDGNVLIPEMQ", "systemUnderTest": "human monoclonal antibody CR57", "measured": 85}
{"constructSequence": "RWLRTVKTTKESLVI", "systemUnderTest": "human monoclonal antibody CR57", "measured": 40}
{"constructSequence": "LKVGYILAIKMNGFT", "systemUnderTest": "human monoclonal antibody CR57", "measured": 78}
{"constructSequence": "HMELLESSVIPLVHP", "systemUnderTest": "human monoclonal antibody CR57", "measured": 110}
{"constructSequence": "KGSETCGFVDERGLY", "systemUnderTest": "human monoclonal antibody CR57", "measured": 90}
{"constructSequence": "GVVTEAENYTNFVGY", "systemUnderTest": "human monoclonal antibody CR57", "measured": 86}
{"constructSequence": "KLKLCGVLGLRLMDG", "systemUnderTest": "human monoclonal antibody CR57", "measured": 273}
{"constructSequence": "PDACRAAYNWKMAGD", "systemUnderTest": "human monoclonal antibody CR57", "measured": 61}
{"constructSequence": "KWCPPDQLVNLHDFR", "systemUnderTest": "human monoclonal antibody CR57", "measured": 89}
{"constructSequence": "SCDIFTNSRGKRASK", "systemUnderTest": "human monoclonal antibody CR57", "measured": 44}
{"constructSequence": "DERGLYKSLKGACKL", "systemUnderTest": "human monoclonal antibody CR57", "measured": 90}
{"constructSequence": "CGFVDERGLYKSLKG", "systemUnderTest": "human monoclonal antibody CR57", "measured": 72}
{"constructSequence": "SCPNNLVVEDEGCTN", "systemUnderTest": "human monoclonal antibody CR57", "measured": 83}
{"constructSequence": "KSVRTWNEILPSKGC", "systemUnderTest": "human monoclonal antibody CR57", "measured": 115}
{"constructSequence": "AMQTSNETKWCPPDQ", "systemUnderTest": "human monoclonal antibody CR57", "measured": 104}
{"constructSequence": "SLVIISPSVADLDPY", "systemUnderTest": "human monoclonal antibody CR57", "measured": 68}
{"constructSequence": "IDIHHLSCPNNLVVE", "systemUnderTest": "human monoclonal antibody CR57", "measured": 69}
{"constructSequence": "EELVRKREECLDALE", "systemUnderTest": "human monoclonal antibody CR57", "measured": 69}
{"constructSequence": "DEIEHLVVEELVRKR", "systemUnderTest": "human monoclonal antibody CR57", "measured": 94}
{"constructSequence": "TIWMPENPRLGMSCD", "systemUnderTest": "human monoclonal antibody CR57", "measured": 69}
{"constructSequence": "DYRWLRTVKTTKESL", "systemUnderTest": "human monoclonal antibody CR57", "measured": 54}
{"constructSequence": "VTEAENYTNFVGYVT", "systemUnderTest": "human monoclonal antibody CR57", "measured": 79}
{"constructSequence": "DGNVLIPEMQSSLLQ", "systemUnderTest": "human monoclonal antibody CR57", "measured": 123}
{"constructSequence": "TNFVGYVTTTFKRKH", "systemUnderTest": "human monoclonal antibody CR57", "measured": 71}
{"constructSequence": "GGRCHPHVNGVFFNG", "systemUnderTest": "human monoclonal antibody CR57", "measured": 86}
{"constructSequence": "NKTLMEADAHYKSVR", "systemUnderTest": "human monoclonal antibody CR57", "measured": 104}
{"constructSequence": "GVFFNGIILGPDGNV", "systemUnderTest": "human monoclonal antibody CR57", "measured": 58}
{"constructSequence": "SSLLQQHMELLESSV", "systemUnderTest": "human monoclonal antibody CR57", "measured": 90}
{"constructSequence": "GVAVSSTYCSTNHDY", "systemUnderTest": "human monoclonal antibody CR57", "measured": 79}
{"constructSequence": "GCTNLSGFSYMELKV", "systemUnderTest": "human monoclonal antibody CR57", "measured": 55}
{"constructSequence": "RRLSHLRKLVPGFGK", "systemUnderTest": "human monoclonal antibody CR57", "measured": 92}
{"constructSequence": "YILAIKMNGFTCTGV", "systemUnderTest": "human monoclonal antibody CR57", "measured": 47}
{"constructSequence": "SVSFRRLSHLRKLVP", "systemUnderTest": "human monoclonal antibody CR57", "measured": 64}
{"constructSequence": "LLQQHMELLESSVIP", "systemUnderTest": "human monoclonal antibody CR57", "measured": 78}
{"constructSequence": "VNGVFFNGIILGPDG", "systemUnderTest": "human monoclonal antibody CR57", "measured": 68}
{"constructSequence": "TKESLVIISPSVADL", "systemUnderTest": "human monoclonal antibody CR57", "measured": 86}
{"constructSequence": "FPIYTILDKLGPWSP", "systemUnderTest": "human monoclonal antibody CR57", "measured": 42}
{"constructSequence": "HDFRSDEIEHLVVEE", "systemUnderTest": "human monoclonal antibody CR57", "measured": 69}
{"constructSequence": "PSVADLDPYDRSLHS", "systemUnderTest": "human monoclonal antibody CR57", "measured": 44}
{"constructSequence": "SDEIEHLVVEELVRK", "systemUnderTest": "human monoclonal antibody CR57", "measured": 101}
{"constructSequence": "TTKESLVIISPSVAD", "systemUnderTest": "human monoclonal antibody CR57", "measured": 78}
{"constructSequence": "LPSKGCLRVGGRCHP", "systemUnderTest": "human monoclonal antibody CR57", "measured": 77}
{"constructSequence": "ERGLYKSLKGACKLK", "systemUnderTest": "human monoclonal antibody CR57", "measured": 90}
{"constructSequence": "FVGYVTTTFKRKHFR", "systemUnderTest": "human monoclonal antibody CR57", "measured": 70}
{"constructSequence": "HNPYPDYRWLRTVKT", "systemUnderTest": "human monoclonal antibody CR57", "measured": 86}
{"constructSequence": "IHHLSCPNNLVVEDE", "systemUnderTest": "human monoclonal antibody CR57", "measured": 37}
{"constructSequence": "NYTNFVGYVTTTFKR", "systemUnderTest": "human monoclonal antibody CR57", "measured": 49}
{"constructSequence": "MSCDIFTNSRGKRAS", "systemUnderTest": "human monoclonal antibody CR57", "measured": 46}
{"constructSequence": "PENPRLGMSCDIFTN", "systemUnderTest": "human monoclonal antibody CR57", "measured": 83}
{"constructSequence": "ILGPDGNVLIPEMQS", "systemUnderTest": "human monoclonal antibody CR57", "measured": 125}
{"constructSequence": "NPRLGMSCDIFTNSR", "systemUnderTest": "human monoclonal antibody CR57", "measured": 90}
{"constructSequence": "PDYRWLRTVKTTKES", "systemUnderTest": "human monoclonal antibody CR57", "measured": 76}
{"constructSequence": "LGPDGNVLIPEMQSS", "systemUnderTest": "human monoclonal antibody CR57", "measured": 100}
{"constructSequence": "HPHVNGVFFNGIILG", "systemUnderTest": "human monoclonal antibody CR57", "measured": 104}
{"constructSequence": "PIYTILDKLGPWSPI", "systemUnderTest": "human monoclonal antibody CR57", "measured": 36}
{"constructSequence": "MPENPRLGMSCDIFT", "systemUnderTest": "human monoclonal antibody CR57", "measured": 105}
{"constructSequence": "ILPSKGCLRVGGRCH", "systemUnderTest": "human monoclonal antibody CR57", "measured": 79}
{"constructSequence": "RKHFRPTPDACRAAY", "systemUnderTest": "human monoclonal antibody CR57", "measured": 64}
{"constructSequence": "HLRKLVPGFGKAYTI", "systemUnderTest": "human monoclonal antibody CR57", "measured": 99}
{"constructSequence": "AIKMNGFTCTGVVTE", "systemUnderTest": "human monoclonal antibody CR57", "measured": 47}
{"constructSequence": "GVLGLRLMDGTWVAM", "systemUnderTest": "human monoclonal antibody CR57", "measured": 89}
{"constructSequence": "HVNGVFFNGIILGPD", "systemUnderTest": "human monoclonal antibody CR57", "measured": 97}
{"constructSequence": "VVTEAENYTNFVGYV", "systemUnderTest": "human monoclonal antibody CR57", "measured": 87}
{"constructSequence": "TEAENYTNFVGYVTT", "systemUnderTest": "human monoclonal antibody CR57", "measured": 68}
{"constructSequence": "NPYPDYRWLRTVKTT", "systemUnderTest": "human monoclonal antibody CR57", "measured": 85}
